FYI, the data here is from patent US20260250371A1.

# Target: T1, recombinant human FGF23 (R179Q) (human, UniProt Q9GZV9 25-251)
# T1 construct: also called rhFGF23(R179Q); hFGF23(R179Q)
# T1 sequence (looked up): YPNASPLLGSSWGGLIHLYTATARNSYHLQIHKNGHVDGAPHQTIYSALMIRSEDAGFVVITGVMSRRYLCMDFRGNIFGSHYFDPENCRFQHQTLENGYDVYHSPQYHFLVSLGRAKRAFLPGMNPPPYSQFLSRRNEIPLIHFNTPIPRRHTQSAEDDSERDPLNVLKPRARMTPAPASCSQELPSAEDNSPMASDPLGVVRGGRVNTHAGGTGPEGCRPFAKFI
# Protocol notes: SPR, antibody captured on hIgG chip, rhFGF23(R179Q) analyte
Measurement label: SA (surface activity) (%)

Binder | Measurement label | Observed
UGX152 (antibody, human IgG1, kappa, V domains shown, also called HC:N31Q) VH: QVQLVQSGAEVKKPGASVKVSCKASGYTFTQHYMHWVRQAPGQGLEWMGIINPISGSTSNAQKFQGRVTMTRDTSTSTVYMELSSLRSEDTAVYYCARDIVDAFDFWGQGTMVTVSS VL: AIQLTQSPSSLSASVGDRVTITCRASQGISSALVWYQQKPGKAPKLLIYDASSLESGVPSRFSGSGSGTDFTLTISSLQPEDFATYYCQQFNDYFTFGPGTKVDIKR | SA (surface activity) | 91.2
UGX205 (antibody, human IgG1, kappa, V domains shown, also called HC:S59E, LC:Y94D; S59E/Y94D) VH: QVQLVQSGAEVKKPGASVKVSCKASGYTFTNHYMHWVRQAPGQGLEWMGIINPISGSTENAQKFQGRVTMTRDTSTSTVYMELSSLRSEDTAVYYCARDIVDAFDFWGQGTMVTVSS VL: AIQLTQSPSSLSASVGDRVTITCRASQGISSALVWYQQKPGKAPKLLIYDASSLESGVPSRFSGSGSGTDFTLTISSLQPEDFATYYCQQFNDDFTFGPGTKVDIKR | SA (surface activity) | 93.9
